Reference for the values: ChEMBL document CHEMBL5058577

# System: Fibroblast
# experiment: Multiplex assay against human fibroblast
# Assay type: toxicity, cell-based
# condition.details: 24 h, 10 µM, compound concentration 10 uM, replicate 2
Please mark class 1 if the recorded Population Mitochondria Different-Phenotype (%) is equal to or greater than 10%, and class 0 if it falls below.

Below are worked cases with known answers.
compound: CC(=O)Nc1cccc2c1c(Sc1ccc(Cl)cc1)c(C)n2CC(=O)O
assigned.label: class 0
--
compound: CCCCC1=NC2(CCCC2)C(=O)N1Cc1ccc(-c2ccccc2-c2nnn[nH]2)cc1
assigned.label: class 0

Query block: Quick check, Population Mitochondria Different-Phenotype (%) >= 10%? `CC(C)COc1ccc(CNC(=O)N(Cc2ccc(F)cc2)C2CCN(C)CC2)cc1`
Result block: class 1

Query block: // repeat for `CC[C@@H](C)Nc1nc(C)nc2c(-c3ccc(OC)nc3C)c(C)nn12` and report
Result block: class 0

Query block: // repeat for `N#Cc1cc(F)cc(-c2nc(-c3ccc(F)cn3)no2)c1` and report
Result block: class 1

Query block: // repeat for `NCCc1cn(S(=O)(=O)c2c(Cl)nc3sccn23)c2ccccc12.O=C(O)C(=O)O` and report
Result block: class 1

Query block: // repeat for `CN(C)C(=O)Cn1cc(-c2ccc(-c3cncc4ccccc34)cc2)cn1` and report
Result block: class 0

Query block: // repeat for `N#Cc1c(Oc2cccc(OS(=O)(=O)CCCC(F)(F)F)c2)cccc1C(F)(F)F` and report
Result block: class 1

Query block: // repeat for `COc1cccc2c1c(NS(=O)(=O)c1ccc(Cl)s1)nn2Cc1cccc(CNC(=O)C(C)(C)O)c1` and report
Result block: class 0

Query block: // repeat for `Cc1onc(-c2ccccc2Cl)c1C(=O)N(C)c1ccc(Cl)cc1` and report
Result block: class 0

Query block: // repeat for CCCCCC(O)/C=C/[C@H]1C(=O)CC(O)C1C/C=C\CCCC(=O)O (stereo not given in full) and report
Result block: class 0

Query block: // repeat for `COc1ccccc1N1CCN(C[C@@H](C(=O)NC(C)(C)C)c2ccccc2)CC1.Cl.Cl` and report
Result block: class 0

Query block: // repeat for Cl.NCCc1ccc(O)c(O)c1 [DOPAMINE HYDROCHLORIDE] and report
Result block: class 0

Query block: // repeat for Cc1sc2c(c1C)C(c1ccc(Cl)cc1)=N[C@@H](CC(=O)NCCCCCCCCNC(=O)COc1cccc3c1C(=O)N(C1CCC(=O)NC1=O)C3=O)c1nnc(C)n1-2 (stereo not given in full) and report
Result block: class 1

Query block: // repeat for O=C(NCCN1CCC(n2c(=O)[nH]c3cc(Cl)ccc32)CC1)c1ccc(F)cc1 [HALOPEMIDE] and report
Result block: class 1

Query block: // repeat for `Cc1c(CC(=O)O)c2cccnc2n1Cc1ccc(S(C)(=O)=O)cc1C(F)(F)F` and report
Result block: class 0

###

# System: Fibroblast
# experiment: Multiplex assay against human fibroblast
# Assay type: toxicity, cell-based
# condition.details: 48 h, 1 µM, compound concentration 1 uM, replicate 1
The reader will find reported Population Normal (%) values listed item by item below.
# unit: % | format: bare number

Use the examples below as a reference point.
compound: CCCOc1ccc2[nH]cc(C3=CCNCC3)c2n1.Cl
measurement.kind: Population Normal (%)
unit.label: %
observed.result: 97
//
compound: COc1ccccc1N1CCN(C[C@@H](C(=O)NC(C)(C)C)c2ccccc2)CC1.Cl.Cl
measurement.kind: Population Normal (%)
unit.label: %
observed.result: 94
//
compound: N#Cc1c(Oc2cccc(OS(=O)(=O)CCCC(F)(F)F)c2)cccc1C(F)(F)F
measurement.kind: Population Normal (%)
unit.label: %
observed.result: 92

Query block: Give the measured Population Normal (%) of `Cc1cccc(NC(=O)CN2CCC(c3ccccn3)CC2)c1.Cl.Cl` .
Result block: 96

Query block: // repeat for `CC(C)(C)c1cc(NC(=O)Nc2ccc(-c3cn4c(n3)sc3cc(OCCN5CCOCC5)ccc34)cc2)no1` and report
Result block: 91

Query block: // repeat for COC[C@@H](c1ccc(C(F)(F)F)cc1)N1CCN(C2(C)CCN(C(=O)c3c(C)ncnc3C)CC2)C[C@@H]1C.O=C(O)/C=C\C(=O)O [VICRIVIROC MALEATE] and report
Result block: 96

Query block: // repeat for `CC(C)COc1ccc(CNC(=O)N(Cc2ccc(F)cc2)C2CCN(C)CC2)cc1` and report
Result block: 96

Query block: // repeat for `CCc1cc2cc(NS(=O)(=O)c3ccc(C#N)cc3)ccc2n(CC)c1=O` and report
Result block: 96

Query block: // repeat for `C[C@H](N)COC(=O)[C@@H](CCCCN)NC(=O)Cc1c(-c2ccc3ccccc3c2)[nH]c2c1ccc1ccccc12` and report
Result block: 94

Query block: // repeat for `CC[C@@H](C)Nc1nc(C)nc2c(-c3ccc(OC)nc3C)c(C)nn12` and report
Result block: 91

Query block: // repeat for `CN(C)C(=O)Cn1cc(-c2ccc(-c3cncc4ccccc34)cc2)cn1` and report
Result block: 93
